We begin with a simple list: items and their reported TGI.
Test system: SK-MEL-5 melanoma
Assay: NCI tumour cell line growth inhibition, 48 h
Readout Name: TGI

# Compound, Result
measured = [
    ("COC(=O)C([C@H](NC1(c2ccccc2)c2ccccc2-c2ccccc21)C(=O)OC)N(NC(=O)OCc1ccccc1)C(=O)OCc1ccccc1 (mixture of isomers)", "> 100 µM"),
    ("COc1cccc(C(=O)O[C@H]2[C@@H]3[C@]4(OC(C)=O)CO[C@@H]4C[C@H](O)[C@@]3(C)C(=O)[C@H](OC(C)=O)C3=C(C)[C@@H](OC(=O)[C@H](O)[C@@H](NC(=O)OC(C)(C)C)c4ccco4)C[C@]2(O)C3(C)C)c1", "> 15.7 µM"),
    ("CCN(CC)CCSc1c2ccccc2nc2cc(NCC(=O)Nc3ccccc3-c3ccccc3NC(=O)CNc3ccc4c(SCCN(CC)CC)c5ccccc5nc4c3)ccc12", "> 100 µM"),
    ("CC(C)=CCc1c2c(c3occ(-c4ccc(O)cc4)c(=O)c3c1O)CC(C(C)(C)O)O2 (stereo unspecified)", "30.1 µM"),
    ("O=[N+]([O-])c1cccc(-c2csc(NNC3=NC/C(=C/c4ccc5c(c4)OCO5)S3)n2)c1", "38.6 µM"),
    ("O=C(O)CCC(NC(=O)c1ccc(Nc2nc3ccccc3nc2-c2cccs2)cc1)C(=O)O (stereo unspecified)", "> 100 µM"),
    ("N#Cc1c(N2CCCC2)ncn(-c2ccccc2)c1=O", "> 100 µM"),
    ("C=C(C)C(OC)C(O)CC1(C)CC(O)CC(C)(C2CCC3OC(C4(C)CCC(Br)C(C)(C)O4)CCC3(C)O2)O1 (stereo unspecified)", "28.4 µM"),
    ("CCOC(=O)CSc1c(C(=O)OCC)c(=O)n(-c2ccccc2)c(=S)n1-c1ccccc1", "> 100 µM"),
    ("NS(=O)(=O)OC[C@@H]1C[C@@H](n2ccc3c(NC4CCc5ccccc54)ncnc32)C[C@@H]1O (stereo partly specified)", "17.2 µM"),
    ("COc1cc2cc(OC)c3cc4c(cc3c2c(OC)c1OC)OCO4", "> 57.2 µM"),
]

Entry source: PubChem BioAssay (NCI)
